# Lookup of reported pIC50 keyed by entry
- test_system: PI3Kγ (Homo sapiens, UniProt P48736)
- Construct: made in house
- Sequence (P48736 whole entry): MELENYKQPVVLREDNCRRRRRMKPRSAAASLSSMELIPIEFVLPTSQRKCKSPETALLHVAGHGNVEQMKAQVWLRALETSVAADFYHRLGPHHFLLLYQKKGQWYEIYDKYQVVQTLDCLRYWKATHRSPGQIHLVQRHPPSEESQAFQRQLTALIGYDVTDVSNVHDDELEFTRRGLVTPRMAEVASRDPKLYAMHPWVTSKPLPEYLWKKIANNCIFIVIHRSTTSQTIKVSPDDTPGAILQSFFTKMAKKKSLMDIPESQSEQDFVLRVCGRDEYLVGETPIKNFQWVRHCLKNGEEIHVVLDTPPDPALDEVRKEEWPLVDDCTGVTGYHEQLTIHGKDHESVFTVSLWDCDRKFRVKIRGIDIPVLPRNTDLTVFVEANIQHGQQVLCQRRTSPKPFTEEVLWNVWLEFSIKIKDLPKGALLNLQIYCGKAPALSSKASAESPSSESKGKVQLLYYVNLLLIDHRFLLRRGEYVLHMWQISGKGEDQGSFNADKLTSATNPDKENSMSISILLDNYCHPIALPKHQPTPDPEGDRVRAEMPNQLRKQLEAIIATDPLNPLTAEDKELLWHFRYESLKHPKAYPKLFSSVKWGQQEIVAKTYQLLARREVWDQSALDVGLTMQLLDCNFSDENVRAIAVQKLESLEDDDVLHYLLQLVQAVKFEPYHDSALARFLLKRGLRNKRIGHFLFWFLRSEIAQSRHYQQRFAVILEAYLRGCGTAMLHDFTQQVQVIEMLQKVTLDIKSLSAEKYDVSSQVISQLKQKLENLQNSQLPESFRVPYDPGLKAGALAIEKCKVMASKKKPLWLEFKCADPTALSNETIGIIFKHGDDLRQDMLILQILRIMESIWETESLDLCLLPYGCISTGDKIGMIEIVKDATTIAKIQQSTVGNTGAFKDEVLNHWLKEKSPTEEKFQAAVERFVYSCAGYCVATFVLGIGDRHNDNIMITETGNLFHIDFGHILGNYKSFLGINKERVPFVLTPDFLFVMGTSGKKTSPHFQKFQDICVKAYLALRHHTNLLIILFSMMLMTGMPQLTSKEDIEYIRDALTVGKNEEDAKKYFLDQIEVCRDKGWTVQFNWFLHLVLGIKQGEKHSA
- measurement_description: TR-FRET enzymatic activity assay, PI3Kγ
- Assay type: biochemical
- experimental_conditions: Table 2; TR-FRET, 2x Km ATP, 30 minutes at 25° C.; read-out: PI3Kγ IC50
// field semantics: pIC50 = negative decimal log of concentration (mol/L)

structure_string: N#Cc1c(N)nc(N)nc1N[C@H](c1nc2cccc(Cl)c2c(=O)n1-c1cn[nH]c1)C1CC1
pIC50: 7.17
//
structure_string: N#Cc1c(N)nc(N)nc1N[C@@H](c1ccccc1)c1nc2cccc(Cl)c2c(=O)n1-c1cn[nH]c1
pIC50: 6.68
//
structure_string: C[C@H](Nc1nc(N)nc(N)c1C#N)c1nc2ccc(F)cc2c(=O)n1-c1cc[nH]n1
pIC50: 6.25

Please indicate pIC50 recorded for CC[C@H](Nc1nc(N)nc(N)c1C#N)c1nc2cccc(Br)c2c(=O)n1-c1cn[nH]c1
7.03

Please indicate pIC50 recorded for CC[C@H](Nc1nc(N)nc(N)c1C#N)c1nc2cccc(Cl)c2c(=O)n1-c1n[nH]cc1Br
6.62

Please indicate pIC50 recorded for CC[C@H](Nc1ncnc2scnc12)c1nc2cccc(S(C)(=O)=O)c2c(=O)n1-c1cc[nH]n1
5.09

Please indicate pIC50 recorded for CC[C@H](Nc1ncnc2ccc(Cl)nc12)c1nc2c(C#N)cccc2c(=O)n1-c1cn[nH]c1
5.82

Data origin, for the record: patent US10308639B2
